Known solubility of a selection of compounds
- method-summary: physchem
- condition-context: water for injection
measured-quantity: solubility (µg/mL)

compound: COc1c(N2CCN(C(=O)C(N)CC(C)C)C(C)C2)c(F)cc2c(=O)c(C(=O)O)cn(C3CC3)c12 (stereo not shown) [GFX-LEU]
unit-descriptor: µg/mL
quantitative-readout: 2160
//
compound: Cc1ccc(-c2cc(C(F)(F)F)nn2-c2ccc(S(=O)(=O)NC(=O)C(N)CCCCN)cc2)cc1 (stereo not shown) [CXB-LYS]
unit-descriptor: µg/mL
quantitative-readout: 50
//
compound: Cc1ccc(-c2cc(C(F)(F)F)nn2-c2ccc(S(=O)(=O)NC(=O)C(N)CC(C)C)cc2)cc1 (stereo not shown) [CXB-LEU]
unit-descriptor: µg/mL
quantitative-readout: 16
//
compound: COc1c(N2CCN(C(=O)C(N)CCCNC(=N)N)C(C)C2)c(F)cc2c(=O)c(C(=O)O)cn(C3CC3)c12 (stereo not shown) [GFX-ARG]
unit-descriptor: µg/mL
quantitative-readout: 25500
